Tested on: H1N1 A1/Malaysia/302/1954
CONDITION_DETAILS: A1/Malaysia/302/1954, 48 h, 10 μM
Bridge positions count the residues as written; N and C are the ends. Square brackets hold non-standard residues; d marks the D form. Peptide text beside a SMILES is read from it.
Overview of recorded % inhibition H1N1 for various compounds
Give the quantity in %, number only.

Previously resolved entries follow.
COMPOUND: CC[C@@H](C)[C@H]1NC(=O)[C@@H](Cc2ccccc2)NC(=O)[C@@H](C(C)C)NC(=O)[C@@H](Cc2ccccc2)NC(=O)[C@@H](Cc2c[nH]c3ccccc23)NC(=O)[C@@H]([C@H](C)O)NC(=O)[C@H](NC(=O)[C@H](CCCCN)NC(=O)[C@H](CCCCN)NC(=O)[C@H](CCCNC(=N)N)NC(=O)[C@@H](N)CCCNC(=N)N)CSSC[C@H](C(=O)O)NC(=O)[C@@H](CC(N)=O)NC1=O [PSP IV A18, H-RRKKctwfvfinc-OH] (H-RRKK[dC][dT][dW][dF][dV][dF][dI][dN][dC]-OH; disulfide 5-13)
MEASURED_VALUE: 84

COMPOUND: CC[C@@H](C)[C@H]1NC(=O)[C@@H](Cc2ccccc2)NC(=O)[C@@H](C)NC(=O)[C@@H](Cc2ccccc2)NC(=O)[C@@H](Cc2c[nH]c3ccccc23)NC(=O)[C@@H]([C@H](C)O)NC(=O)[C@H](NC(=O)[C@H](CCCCN)NC(=O)[C@H](CCCCN)NC(=O)[C@H](CCCNC(=N)N)NC(=O)[C@@H](N)CCCNC(=N)N)CSSC[C@H](C(=O)O)NC(=O)[C@@H](CC(N)=O)NC1=O [PSP IV A1, H-RRKKctwfafinc-OH] (H-RRKK[dC][dT][dW][dF][dA][dF][dI][dN][dC]-OH; disulfide 5-13)
MEASURED_VALUE: 78

COMPOUND: CC[C@@H](C)[C@H]1NC(=O)[C@@H](Cc2ccccc2)NC(=O)[C@@H]([C@H](C)CC)NC(=O)[C@@H](Cc2ccccc2)NC(=O)[C@@H](Cc2c[nH]c3ccccc23)NC(=O)[C@@H]([C@H](C)O)NC(=O)[C@H](NC(=O)[C@H](CCCCN)NC(=O)[C@H](CCCCN)NC(=O)[C@H](CCCNC(=N)N)NC(=O)[C@@H](N)CCCNC(=N)N)CSSC[C@H](C(=O)O)NC(=O)[C@@H](CC(N)=O)NC1=O [PSP IV A8, H-RRKKctwfifinc-OH] (H-RRKK[dC][dT][dW][dF][dI][dF][dI][dN][dC]-OH; disulfide 5-13)
MEASURED_VALUE: 92

We next turn to a different compound, shown below.
Give reported % inhibition H1N1 value for CC[C@@H](C)[C@H]1NC(=O)[C@@H](Cc2ccccc2)NC(=O)[C@@H](CCC(=O)O)NC(=O)[C@@H](Cc2ccccc2)NC(=O)[C@@H](Cc2c[nH]c3ccccc23)NC(=O)[C@@H]([C@H](C)O)NC(=O)[C@H](NC(=O)[C@H](CCCCN)NC(=O)[C@H](CCCCN)NC(=O)[C@H](CCCNC(=N)N)NC(=O)[C@@H](N)CCCNC(=N)N)CSSC[C@H](C(=O)O)NC(=O)[C@@H](CC(N)=O)NC1=O [PSP IV A4, H-RRKKctwfefinc-OH] (H-RRKK[dC][dT][dW][dF][dE][dF][dI][dN][dC]-OH; disulfide 5-13) 62
